# PROTOCOL TEXT: Bioavailability of esters of methionine after spot dose to cows (Example 2)
# Type: in vivo, cow
# TEST CONDITIONS: bovine, in vivo, 5 h
We begin with a simple list: items and their reported [met] methionine concentration in blood plasma.
ENDPOINT LABEL: [met] methionine concentration in blood plasma

> print(dat)
                                   compound                    test.result
1  CCCCCCCCCCCCCCCCCCOC(=O)[C@@H](N)CCSC [n-octadecyl methioninate]  0.37 mg/100 g of blood plasma
2  CCCCCCCCCCCCOC(=O)[C@@H](N)CCSC [Dodecyl methioninate, dodecyl methioninate]  0.44 mg/100 g of blood plasma
3  COC(=O)[C@@H](N)CCSC.Cl [Methionine methyl ester hydrochloride, methionine methyl ester hydrochloride]  1.18 mg/100 g of blood plasma
4  CCCCOC(=O)[C@@H](N)CCSC [n-butyl methioninate]  0.62 mg/100 g of blood plasma
5  COC(=O)[C@@H](N)CCSC [Methyl methioninate, methyl methioninate]  2.57 mg/100 g of blood plasma
6  CCCOC(=O)[C@@H](N)CCSC [n-propyl methioninate]  1.27 mg/100 g of blood plasma
7  CSCC[C@H](N)C(=O)OC1CCCCC1 [Cyclohexyl methioninate, cyclohexyl methioninate]  1.61 mg/100 g of blood plasma
8  CCC(C)OC(=O)[C@@H](N)CCSC (some centres unmarked) [sec butyl methioninate]  1.75 mg/100 g of blood plasma

Origin of values: patent US6872749B2
